- TEST METHOD NOTES: Toxicity liver stage against HepG2, at 10uM
- Type: cell-based
- Set-up: test concentration 10 uM, cell line HepG2-A16-CD81EGFP
- MEASUREMENT CONDITIONS: human, HepG2-A16-CD81EGFP cells; read-out: INHIBITION
MEASURE NAME: cytotoxicity at 10 µM (%)
Give the value, in units of %, as a plain number.

1) O=C(CN1C(=O)CCCc2sccc21)NC1CCc2nccn2C1 (stereo unspecified); 9.29
2) O=C(c1ccccn1)N1CCC(c2nccn2Cc2ccncc2)CC1; 1.94
3) CN(C)C(=O)[C@H]1CC[C@@H]2[C@@H](CCN2C(=O)N(C)C)O1; 20.3
4) CCN(CC)C(=O)c1nnn(Cc2ccccc2)c1OC; 10.3
5) CN1CCCC(Cc2cc(N(C)C)ncn2)C1 (stereo unspecified); 11.1
6) Cn1cnc2c1C(COCc1cccnc1)N(Cc1ccccc1)CC2 (stereo unspecified); 13.5

input: Name the reported cytotoxicity at 10 µM value associated with the compound CC(C)Cn1cncc1CNC1CCSC1 (stereo unspecified)
output: -2.34

input: Next: `CS(=O)(=O)NC[C@]12COC[C@H]1CN(C(=O)N1CCCC1)C2`
output: -109

input: Next: `Cc1cc(CN2CCN(C(=O)CCc3cccs3)CC2)on1`
output: -5

input: Next: `COc1ccc(NC(=O)CSC(F)(F)F)cn1`
output: -96.6

input: Next: `Cn1nccc1C(=O)Nc1cc(C(F)(F)F)c[nH]c1=O`
output: -6.54

input: Next: `CCc1cnc(N2C[C@H]3CN(Cc4csc(C)n4)C(=O)[C@H]3C2)nc1`
output: 9.43

input: Next: `CC(C)(C)OC(=O)Cn1cccc(S(=O)(=O)N2CCCC2)c1=O`
output: 5.54
